Reported values of TGI for individual entries
# Test system: LXFL 529 NSCLC
# Assay Overview: NCI tumour cell line growth inhibition, 48 h
Measured Endpoint: TGI

[[record]]
molecule = "Cc1cc(NC(=O)NC(=O)c2ccccc2N)ccc1Oc1ncc(Br)cn1"
result = "> 57.2 µM"

[[record]]
molecule = "CN(C)CCNC(=O)c1ccc(C(=O)NCCN(C)C)c2nc3ccccc3cc12"
result = "12.3 µM"

[[record]]
molecule = "COc1ccc(C2C(=O)C(Cl)N2Nc2nc(C)cc(=O)[nH]2)cc1OC (stereo not given)"
result = "> 100 µM"

[[record]]
molecule = "O/N=C/c1cc2c(cc1Br)OCO2"
result = "> 100 µM"

[[record]]
molecule = "COc1ccc(C2=NN(C(=O)COc3ccc(Cl)cc3)C(O)(c3ccc(Cl)cc3)C2)cc1 (stereo not given)"
result = "> 100 µM"

[[record]]
molecule = "[C-]#[O+].[C-]#[O+].[C-]#[O+].[C-]#[O+].[Ir].[Ir].[O-]c1ccc2ccccc2c1C=Nc1ccc(N=Cc2c([O-])ccc3ccccc23)cc1"
result = "> 100 µM"

[[record]]
molecule = "CCn1c2ccccc2c2ccc3c(c21)C(=O)c1ccccc1C3=O"
result = "> 100 µM"

[[record]]
molecule = "O=C(Cc1ccccc1)NN1C(=O)C(Cl)C1c1ccc([N+](=O)[O-])cc1 (stereo not given)"
result = "> 100 µM"

[[record]]
molecule = "NNC(=O)CCC(=O)Nc1cc(Cl)c(Cl)cc1Cl"
result = "> 100 µM"

[[record]]
molecule = "Fc1cccc2cc3ccc4cccc5ccc(c12)c3c45"
result = "> 100 µM"


----------
Documented TGI across a set of compounds
# Tested on: COLO 205 colon
# Assay Overview: NCI tumour cell line growth inhibition, 48 h
Measured Endpoint: TGI

[[record]]
compound = "CS/C(=N\\C(=S)Nc1ccccc1)Nc1ccccc1"
measured_endpoint = "TGI"
result = "78.1 µM"

[[record]]
compound = "NC(=O)NO"
measured_endpoint = "TGI"
result = "> 2500 µM"

[[record]]
compound = "COc1cc(-c2c(C#N)c(N)c(C#N)c3c2COc2ccccc2-3)cc(OC)c1OC"
measured_endpoint = "TGI"
result = "> 100 µM"

[[record]]
compound = "O=c1c2cccc3cccc(c4oc5c6cccc7cccc(c(=O)c5c14)c76)c32"
measured_endpoint = "TGI"
result = "15.6 µM"

[[record]]
compound = "CS(=O)(=O)c1ccc(-c2cnc(N)c(C(=O)Nc3ccccc3)n2)cc1"
measured_endpoint = "TGI"
result = "> 100 µM"

[[record]]
compound = "COc1cccc(Nc2nc(-c3cccs3)nc3ccc(Br)cc23)c1"
measured_endpoint = "TGI"
result = "> 100 µM"

[[record]]
compound = "CSc1nc(-c2ccc(C)cc2)c(C#N)c(=O)[nH]1"
measured_endpoint = "TGI"
result = "> 100 µM"

[[record]]
compound = "CCN(CC)CCC1CCCCN1CC(=O)N1c2ccccc2NC(=O)c2ccccc21 (stereo not drawn)"
measured_endpoint = "TGI"
result = "> 100 µM"

[[record]]
compound = "Cc1nc(Nc2ccc(F)cc2)c2sc(=S)n(-c3ccc(F)cc3)c2n1"
measured_endpoint = "TGI"
result = "27.5 µM"

[[record]]
compound = "N#Cc1cccc(C(=O)Nc2cccc(NC(=O)c3cccc(C#N)c3)c2)c1"
measured_endpoint = "TGI"
result = "> 100 µM"

[[record]]
compound = "CCN(CCNc1ccc(C)c2sc3cc(Cl)ccc3c(=O)c12)CC(C)O (stereo not drawn)"
measured_endpoint = "TGI"
result = "3.24 µM"

[[record]]
compound = "CC1CC(c2cccc3c2OCO3)=Nc2ccccc2S1 (stereo not drawn)"
measured_endpoint = "TGI"
result = "> 100 µM"

[[record]]
compound = "O=C1c2ccc3c4c5ccc(c24)C(=O)N1CCCOCCCCOCCCNCc1ccc(cc1)CNCCCOCCCCOCCCN(C3=O)C5=O"
measured_endpoint = "TGI"
result = "1.26 µM"

[[record]]
compound = "COc1cc(Cn2c(=S)ss/c2=N\\C(=S)N(C)C)cc(OC)c1OC"
measured_endpoint = "TGI"
result = "> 86.9 µM"

[[record]]
compound = "CCn1c2ccccc2c2ccc3c(c21)C(=O)c1ccccc1C3=O"
measured_endpoint = "TGI"
result = "> 100 µM"

[[record]]
compound = "Nc1ncnc2c1ncn2CC(O)C(=O)O (stereo not drawn)"
measured_endpoint = "TGI"
result = "> 100 µM"

[[record]]
compound = "COP(=O)(OC)C(=NCc1ccccc1)NNc1ccc([N+](=O)[O-])cc1"
measured_endpoint = "TGI"
result = "> 100 µM"

[[record]]
compound = "O=c1c2cc(Br)ccc2nc(-c2ccccc2Cl)n1NCC1(O)OCC(O)C(O)C1O (stereo not drawn)"
measured_endpoint = "TGI"
result = "> 100 µM"


----------
# Tested on: BT-549 breast
# Assay Overview: NCI tumour cell line growth inhibition, 48 h; in the data active = GI50 below about 0.43 µM; inactive = the rest
Classes used: active, inactive

[[record]]
compound = "C=CCNCCCN1C(=O)c2ccc3c4c(ccc(c24)C1=O)C(=O)N(CCCNCC=C)C3=O"
classification = "inactive"

[[record]]
compound = "CCCCCCC#Cc1ccccc1C#CCO"
classification = "inactive"

[[record]]
compound = "C=C(C)[C@@H]1CC[C@]2(C(=O)NCCNCCNCCN)CC[C@]3(C)[C@H](CC[C@@H]4[C@@]5(C)CC[C@H](O)C(C)(C)[C@@H]5CC[C@]43C)[C@@H]12"
classification = "inactive"

[[record]]
compound = "O=C1CC(c2ccc3c(c2)OCO3)Nc2cc3c(cc21)OCO3 (stereo not given)"
classification = "inactive"

[[record]]
compound = "CCCCCCCCCCCCCCCC[N+](C)(C)CCN(Cc1ccc(OC)cc1)c1ncccn1"
classification = "inactive"

[[record]]
compound = "CS(=O)(=O)c1ccc(-c2cnc(N)c(C(=O)Nc3ccccc3)n2)cc1"
classification = "inactive"

[[record]]
compound = "N=c1c2c(-c3ccccc3)c(-c3ccccc3)n(Cc3ccccc3)c2ncn1CCCO"
classification = "inactive"

[[record]]
compound = "O=C(CCCCCCSc1nc(-c2ccccc2)cc(-c2ccccc2)n1)NO"
classification = "inactive"

[[record]]
compound = "C/C(=C\\c1ccn(-c2ccc(N)c(F)c2)n1)[C@@H]1C[C@@H]2O[C@]2(C)CCC[C@H](C)[C@H](O)[C@@H](C)C(=O)C(C)(C)[C@@H](O)CC(=O)O1"
classification = "active"

[[record]]
compound = "COc1ccc(C(=O)/C=C/c2c(C(F)(F)F)nc3sccn23)cc1OC"
classification = "inactive"

[[record]]
compound = "NC1=C(Br)C(=O)c2ncccc2C1=O"
classification = "inactive"

[[record]]
compound = "CCN(CCNc1ccc(C)c2sc3cc(Cl)ccc3c(=O)c12)CC(C)O (stereo not given)"
classification = "inactive"

[[record]]
compound = "Cn1c(=O)c(Oc2ccc(F)cc2F)cc2cnc(NC(CO)CO)nc21"
classification = "inactive"

[[record]]
compound = "COc1ccc(-c2cc(-c3ccccc3)nc(N3CCN(CCNc4ccnc5cc(Cl)ccc45)CC3)n2)cc1"
classification = "inactive"

[[record]]
compound = "CN1CCN(c2nc(NCCCCNc3ccnc4cc(Cl)ccc34)c3ccccc3n2)CC1"
classification = "inactive"


----------
# maps each entry to its TGI
# Tested on: RXF 393 renal
# Assay Overview: NCI tumour cell line growth inhibition, 48 h
Measured Endpoint: TGI (µM)

[[record]]
molecule = "C=CC1=C[C@@H]2[C@@H]3O[C@]4(CC[C@H](O4)[C@@H](C)C[C@@H](O)C3=O)C[C@H](O)C3=NCC[C@@]32CC1"
study_target = "RXF 393 renal"
measured_endpoint = "TGI"
comparison_sign = "<"
number = 0.00333

[[record]]
molecule = "C=CCOc1ccc(/C(N=Nc2ccccc2)=N/NC(=O)c2ccccc2)cc1OC"
study_target = "RXF 393 renal"
measured_endpoint = "TGI"
comparison_sign = ">"
number = 100

[[record]]
molecule = "Cc1nn(-c2ccccc2)c2c1CC(=O)Nc1ccccc1-2"
study_target = "RXF 393 renal"
measured_endpoint = "TGI"
comparison_sign = "="
number = 5.85

[[record]]
molecule = "C[C@]12CC[C@@H]3c4ccc(O)cc4CC[C@H]3[C@@H]1CC[C@@H]2NS(=O)(=O)c1cccc(C(F)(F)F)c1"
study_target = "RXF 393 renal"
measured_endpoint = "TGI"
comparison_sign = "="
number = 6.65

[[record]]
molecule = "O=C(CCCCCCSc1nc(-c2ccccc2)cc(-c2ccccc2)n1)NO"
study_target = "RXF 393 renal"
measured_endpoint = "TGI"
comparison_sign = "="
number = 4.42

[[record]]
molecule = "Nc1ccn(CCO)c(=O)n1"
study_target = "RXF 393 renal"
measured_endpoint = "TGI"
comparison_sign = ">"
number = 100

[[record]]
molecule = "CC(C)C[C@H](NC(=O)[C@H]1O[C@@H]1C(=O)O)C(=O)NCCc1ccc(O)cc1"
study_target = "RXF 393 renal"
measured_endpoint = "TGI"
comparison_sign = ">"
number = 100

[[record]]
molecule = "CS(=O)(=O)OCCn1cnc2nc(NC(=O)c3ccccc3)[nH]c(=O)c21"
study_target = "RXF 393 renal"
measured_endpoint = "TGI"
comparison_sign = ">"
number = 100

[[record]]
molecule = "CC(/C(=N/NC(=O)C(N)=O)c1c(Cl)ccc(Cl)c1O)C1(O)C(=O)Nc2ccccc21 (stereo not given)"
study_target = "RXF 393 renal"
measured_endpoint = "TGI"
comparison_sign = ">"
number = 100

[[record]]
molecule = "C=C(C)C(=O)OC1CC2=CC(CC3(C)OC3C3OC(=O)C(=C)C13)OC2=O (stereo not given)"
study_target = "RXF 393 renal"
measured_endpoint = "TGI"
comparison_sign = "="
number = 9.37

